Target: UGT1A1 (Homo sapiens, UniProt P22309)
Sequence (P22309 26-533): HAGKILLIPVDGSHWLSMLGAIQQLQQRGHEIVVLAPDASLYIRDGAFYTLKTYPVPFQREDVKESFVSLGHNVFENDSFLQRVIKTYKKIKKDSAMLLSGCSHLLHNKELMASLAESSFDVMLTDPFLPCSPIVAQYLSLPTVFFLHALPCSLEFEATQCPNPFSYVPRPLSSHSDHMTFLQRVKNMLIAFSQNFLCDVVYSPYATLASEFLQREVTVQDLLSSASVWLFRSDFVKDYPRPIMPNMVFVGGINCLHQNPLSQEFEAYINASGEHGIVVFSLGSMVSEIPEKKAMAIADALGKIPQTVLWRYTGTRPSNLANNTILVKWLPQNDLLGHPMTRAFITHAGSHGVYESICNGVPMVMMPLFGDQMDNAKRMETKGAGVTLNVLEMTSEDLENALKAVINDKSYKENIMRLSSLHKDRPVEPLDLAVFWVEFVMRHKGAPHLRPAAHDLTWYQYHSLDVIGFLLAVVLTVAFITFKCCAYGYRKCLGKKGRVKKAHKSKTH
Assay: Inhibition of raloxifene glucuronidation by recombinant UGT1A1 Supersomes
Settings: human, Supersomes with recombinant human UGT1A1, pH 7.5, probe raloxifene 50 μM, formation of glucuronide G1, % of control metabolism, raloxifene G1, UGT1A1; inhibitor 10 μM
Quantity Measured: activity at 15 min, 10 µM (%)

O=C(OC[C@H]1O[C@@H](OC(=O)c2cc(O)c(O)c(OC(=O)c3cc(O)c(O)c(O)c3)c2)[C@H](OC(=O)c2cc(O)c(O)c(OC(=O)c3cc(O)c(O)c(O)c3)c2)[C@@H](OC(=O)c2cc(O)c(O)c(OC(=O)c3cc(O)c(O)c(O)c3)c2)[C@@H]1OC(=O)c1cc(O)c(O)c(OC(=O)c2cc(O)c(O)c(O)c2)c1)c1cc(O)c(O)c(OC(=O)c2cc(O)c(O)c(O)c2)c1 [Tannic acid]: 17
CCCCCCCCOC(=O)c1cc(O)c(O)c(O)c1 [Octyl gallate]: 65
CC/C(=C(/CC)c1ccc(O)cc1)c1ccc(O)cc1 [Diethylstilbestrol, reference compound]: 59

---

Biological target: UGT1A1 (Homo sapiens)
Test: in vitro
Details: pH 7.5, % of control metabolism, raloxifene G1
Quantity Measured: activity at 15 min, 25 µM (%)

COc1cc(C2Oc3cc([C@H]4Oc5cc(O)cc(O)c5C(=O)[C@@H]4O)ccc3OC2CO)ccc1O (stereo partly shown) [Silibinin]: 46
O=c1c(O)c(-c2ccc(O)c(O)c2)oc2cc(O)cc(O)c12 [Quercetin]: 13
O=C(O[C@@H]1Cc2c(O)cc(O)cc2O[C@@H]1c1ccc(O)c(O)c1)c1cc(O)c(O)c(O)c1 [Epicatechin gallate]: 39
O=C(O)c1cc(-c2ccc(F)cc2F)ccc1O [Diflunisal, reference compound]: 53

---

Molecular target: UGT1A3 (Homo sapiens)
Sequence (P35503 29-534): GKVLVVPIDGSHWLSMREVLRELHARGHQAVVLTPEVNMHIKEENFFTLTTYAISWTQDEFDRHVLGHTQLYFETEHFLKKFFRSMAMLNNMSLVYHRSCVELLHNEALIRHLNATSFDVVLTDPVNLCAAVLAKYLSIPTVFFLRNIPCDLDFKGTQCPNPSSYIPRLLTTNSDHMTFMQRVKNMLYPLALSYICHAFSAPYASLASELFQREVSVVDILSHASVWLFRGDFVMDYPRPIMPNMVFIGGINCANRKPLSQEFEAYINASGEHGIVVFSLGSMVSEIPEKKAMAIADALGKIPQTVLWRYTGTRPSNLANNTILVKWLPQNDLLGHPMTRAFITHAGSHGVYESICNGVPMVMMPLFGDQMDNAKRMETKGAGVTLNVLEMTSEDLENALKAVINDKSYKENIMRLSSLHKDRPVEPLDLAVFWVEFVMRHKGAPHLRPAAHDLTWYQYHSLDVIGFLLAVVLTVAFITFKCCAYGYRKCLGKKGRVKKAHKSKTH
Experiment: Inhibition of raloxifene glucuronidation by recombinant UGT1A3 Supersomes
Settings: human, recombinant UGT1A3 Supersomes, pH 7.5, probe raloxifene 50 μM (formation of glucuronide G2), Inhibition of raloxifene glucuronidation, G2, UGT1A3, G2; inhibitor 10 μM; raloxifene 50 μM, 250 μg/ml Supersomes, 1 mM UDPGA, 15 min
Quantity Measured: activity at 15 min, 10 µM (%)

O=C(OC[C@H]1O[C@@H](OC(=O)c2cc(O)c(O)c(OC(=O)c3cc(O)c(O)c(O)c3)c2)[C@H](OC(=O)c2cc(O)c(O)c(OC(=O)c3cc(O)c(O)c(O)c3)c2)[C@@H](OC(=O)c2cc(O)c(O)c(OC(=O)c3cc(O)c(O)c(O)c3)c2)[C@@H]1OC(=O)c1cc(O)c(O)c(OC(=O)c2cc(O)c(O)c(O)c2)c1)c1cc(O)c(O)c(OC(=O)c2cc(O)c(O)c(O)c2)c1: 64
CC/C(=C(/CC)c1ccc(O)cc1)c1ccc(O)cc1 [Diethylstilbestrol, reference compound]: 74
O=c1c(O)c(-c2ccc(O)c(O)c2)oc2cc(O)cc(O)c12: 73
CCCCCCCCOC(=O)c1cc(O)c(O)c(O)c1 [Octyl gallate]: 60

---

Test system: UGT enzymes of human liver microsomes
Construct: percentage of control metabolism, 7-HFC glucuronidation; percentage of control metabolism, 7-HFC glucuronidation
Test: Inhibition of 7-HFC glucuronidation in human liver microsomes
Assay type: biochemical
Details: inhibitor 100 μM
Quantity Measured: percentage of control metabolism, 7-HFC glucuronidation

CCCCCCCCCCCCCCCC(=O)OC[C@H](O)[C@H]1OC(=O)C(O)=C1O [Ascorbyl palmitate]: 64 (1) %

Record summary for CC1=C(/C=C/C(C)=C/C=C/C(C)=C/CO)C(C)(C)CCC1 : reported percentage of control metabolism, 7-HFC glucuronidation = 59 (1) %

Note to self: percentage of control metabolism, 7-HFC glucuronidation recorded for COc1cc(CNC(=O)CCCCCCC(C)C)ccc1O [Dihydrocapsaicin] was 60 (3) %

For this compound ( CC/C(=C(/CC)c1ccc(O)cc1)c1ccc(O)cc1 [Diethylstilbestrol, reference compound] ), measured percentage of control metabolism, 7-HFC glucuronidation is 11 (1) %

---

Biological target: UniProtKB Q9HAW9
Sequence (Q9HAW9 26-530): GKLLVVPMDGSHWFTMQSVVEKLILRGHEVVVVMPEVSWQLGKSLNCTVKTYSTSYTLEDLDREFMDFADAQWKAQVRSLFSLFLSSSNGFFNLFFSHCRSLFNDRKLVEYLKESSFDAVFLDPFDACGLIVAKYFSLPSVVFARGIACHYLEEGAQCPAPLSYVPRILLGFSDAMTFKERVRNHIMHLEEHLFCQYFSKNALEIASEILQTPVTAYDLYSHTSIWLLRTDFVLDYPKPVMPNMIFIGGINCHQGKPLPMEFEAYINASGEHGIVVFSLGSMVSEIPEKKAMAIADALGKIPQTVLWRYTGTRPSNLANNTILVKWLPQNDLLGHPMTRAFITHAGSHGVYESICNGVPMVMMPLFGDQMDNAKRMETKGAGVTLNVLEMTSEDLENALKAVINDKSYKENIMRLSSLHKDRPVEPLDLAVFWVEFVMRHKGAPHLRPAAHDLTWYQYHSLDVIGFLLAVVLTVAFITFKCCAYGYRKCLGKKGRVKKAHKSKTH
Experiment: Inhibition of raloxifene glucuronidation by recombinant UGT1A8 Supersomes
Details: human, Supersomes with recombinant human UGT1A8, pH 7.5, probe raloxifene 50 μM, formation of glucuronide G1, % of control metabolism, raloxifene G1, UGT1A8; inhibitor 10 μM
Quantity Measured: activity at 15 min, 10 µM (%)
Numeric answer only, unit % assumed.

Lab entry: UniProtKB Q9HAW9 assay, compound CC/C(=C(/CC)c1ccc(O)cc1)c1ccc(O)cc1 [Diethylstilbestrol, reference compound] , activity at 15 min, 10 µM = 156

Value (activity at 15 min, 10 µM, UniProtKB Q9HAW9) for record O=C(OC[C@H]1O[C@@H](OC(=O)c2cc(O)c(O)c(OC(=O)c3cc(O)c(O)c(O)c3)c2)[C@H](OC(=O)c2cc(O)c(O)c(OC(=O)c3cc(O)c(O)c(O)c3)c2)[C@@H](OC(=O)c2cc(O)c(O)c(OC(=O)c3cc(O)c(O)c(O)c3)c2)[C@@H]1OC(=O)c1cc(O)c(O)c(OC(=O)c2cc(O)c(O)c(O)c2)c1)c1cc(O)c(O)c(OC(=O)c2cc(O)c(O)c(O)c2)c1 = 73

---

Test system: UGT enzymes of pooled human jejunum microsomes
Experiment: Inhibition of 2ME2 glucuronidation (MG1) in pooled human jejunum microsomes
Format: biochemical
Details: jejunum HJ61; 2ME2 50 μM; inhibitor 25 μM
Overview of recorded residual metabolism (% of control), 2ME2 MG1 for various molecules

# annotated cases, reported residual metabolism (% of control), 2ME2 MG1 shown
O=C(OC[C@H]1O[C@@H](OC(=O)c2cc(O)c(O)c(OC(=O)c3cc(O)c(O)c(O)c3)c2)[C@H](OC(=O)c2cc(O)c(O)c(OC(=O)c3cc(O)c(O)c(O)c3)c2)[C@@H](OC(=O)c2cc(O)c(O)c(OC(=O)c3cc(O)c(O)c(O)c3)c2)[C@@H]1OC(=O)c1cc(O)c(O)c(OC(=O)c2cc(O)c(O)c(O)c2)c1)c1cc(O)c(O)c(OC(=O)c2cc(O)c(O)c(O)c2)c1: 5 (0) %
O=C(O[C@@H]1Cc2c(O)cc(O)cc2O[C@@H]1c1cc(O)c(O)c(O)c1)c1cc(O)c(O)c(O)c1 [Epigallocatechin gallate]: 66 (2) %

What the record says about O=C(c1ccc(OCCN2CCCCC2)cc1)c1c(-c2ccc(O)cc2)sc2cc(O)ccc12 [Raloxifene, raloxifene, reference compound] : residual metabolism (% of control), 2ME2 MG1 is 31 (3) %

Looking up O=C(O[C@@H]1Cc2c(O)cc(O)cc2O[C@@H]1c1ccc(O)c(O)c1)c1cc(O)c(O)c(O)c1 [Epicatechin gallate] , I see its residual metabolism (% of control), 2ME2 MG1 listed as 76 (4) %

residual metabolism (% of control), 2ME2 MG1 reading for O=c1c(O)c(-c2ccc(O)c(O)c2)oc2cc(O)cc(O)c12 : 56 (2) %

Data point: O=C(O[C@@H]1Cc2c(O)cc(O)cc2O[C@H]1c1cc(O)c(O)c(O)c1)c1cc(O)c(O)c(O)c1 [Gallocatechin gallate] ; residual metabolism (% of control), 2ME2 MG1 = 51 (2) %

---

Molecular target: UGT1A9 (Homo sapiens)
Sequence (O60656 26-530): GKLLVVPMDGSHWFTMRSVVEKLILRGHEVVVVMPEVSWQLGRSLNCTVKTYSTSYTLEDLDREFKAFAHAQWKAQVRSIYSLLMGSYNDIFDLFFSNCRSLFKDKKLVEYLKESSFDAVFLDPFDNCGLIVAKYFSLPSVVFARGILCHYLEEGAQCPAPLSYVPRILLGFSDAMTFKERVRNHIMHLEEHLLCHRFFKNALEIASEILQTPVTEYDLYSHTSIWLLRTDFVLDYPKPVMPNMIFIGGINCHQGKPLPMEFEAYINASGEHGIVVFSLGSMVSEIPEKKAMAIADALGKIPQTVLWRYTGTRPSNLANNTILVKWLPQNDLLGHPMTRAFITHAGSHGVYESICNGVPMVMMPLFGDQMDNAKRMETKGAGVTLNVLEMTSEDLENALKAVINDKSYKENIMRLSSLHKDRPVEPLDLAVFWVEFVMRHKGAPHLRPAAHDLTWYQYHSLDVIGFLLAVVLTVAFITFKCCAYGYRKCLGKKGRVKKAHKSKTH
Test: in vitro
Conditions: pH 7.5, % of control metabolism, raloxifene G2
Quantity Measured: activity at 15 min, 50 µM (%)

I: O=C(O)Cc1ccccc1Nc1c(Cl)cccc1Cl [Diclofenac, reference compound]
II: O=C(O)c1cc(-c2ccc(F)cc2F)ccc1O [Diflunisal, reference compound]
III: COc1cc(C2Oc3cc([C@H]4Oc5cc(O)cc(O)c5C(=O)[C@@H]4O)ccc3OC2CO)ccc1O (stereo partly drawn)
Exam item: Arrange these compounds by their activity at 15 min, 50 µM, starting with the largest number. Answer format: the labels, in the requested order.
Marked response: I, II, III
(I: 77%, II: 43%, III: 22%)
